- SYSTEM_UNDER_TEST: JR-FL (E168K) pseudovirus Env (HIV-1)
- EXPERIMENTAL_DETAILS: cell-based or functional assay
The following binders are listed with their measured IC50 (ug/ml), pseudovirus neutralization, TZM-bl assay values.
Express it in µg/mL; write the number only.

Worked examples, 2 binders total:
[in] Name the recorded IC50 (ug/ml), pseudovirus neutralization, TZM-bl assay for 1469_M23 (PG16) (antibody, V domains shown) VH: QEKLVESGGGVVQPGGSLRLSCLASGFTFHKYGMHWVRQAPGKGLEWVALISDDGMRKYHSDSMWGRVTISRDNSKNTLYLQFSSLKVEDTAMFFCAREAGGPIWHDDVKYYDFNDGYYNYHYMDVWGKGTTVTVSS VL: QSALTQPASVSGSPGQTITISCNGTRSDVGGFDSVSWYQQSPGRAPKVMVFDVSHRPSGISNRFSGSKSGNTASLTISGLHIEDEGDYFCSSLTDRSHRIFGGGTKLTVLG .
[out] 0.005

[in] Then what about the binder 1489_I13 (PG16) (antibody, V domains shown) VH: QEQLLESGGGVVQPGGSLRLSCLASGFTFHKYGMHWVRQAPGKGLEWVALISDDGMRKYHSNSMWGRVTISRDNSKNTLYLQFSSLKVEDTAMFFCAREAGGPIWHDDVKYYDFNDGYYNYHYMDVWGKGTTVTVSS VL: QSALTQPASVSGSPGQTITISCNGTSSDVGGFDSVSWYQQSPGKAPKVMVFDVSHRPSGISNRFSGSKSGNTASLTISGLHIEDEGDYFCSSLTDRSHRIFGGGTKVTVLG ?
[out] 0.005

Now look at this one.
[in] Name the recorded IC50 (ug/ml), pseudovirus neutralization, TZM-bl assay for 1503_H05 (PG16) (antibody, V domains shown) VH: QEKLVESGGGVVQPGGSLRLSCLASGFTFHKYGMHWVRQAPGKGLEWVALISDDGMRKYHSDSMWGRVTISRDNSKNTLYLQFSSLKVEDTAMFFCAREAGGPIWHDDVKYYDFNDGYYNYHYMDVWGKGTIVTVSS VL: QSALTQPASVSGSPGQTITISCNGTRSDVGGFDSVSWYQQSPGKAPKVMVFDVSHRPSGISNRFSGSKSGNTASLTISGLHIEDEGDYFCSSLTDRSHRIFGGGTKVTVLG .
[out] 0.002
